For each record, write down the corresponding TGI.
Test system: HCT-15 colon
assayOverview: NCI tumour cell line growth inhibition, 48 h

What TGI appears in the records for this compound with HCT-15 colon? COc1cccc(/C(C=O)=C(\Cl)c2ccc(OC)c(OC)c2)c1
25.6 µM

What TGI appears in the records for this compound with HCT-15 colon? CCOC(=O)c1cc(C2CCN(CC(C)CC)C2=S)c(C(=O)/C=C(/C)N)[nH]1 (configuration not stated)
> 50 µM

What TGI appears in the records for this compound with HCT-15 colon? CO[C@@](c1ccccc1)(c1nc(C#N)c(N)o1)C(F)(F)F
> 100 µM

What TGI appears in the records for this compound with HCT-15 colon? C=C(C)[C@@H]1CC[C@@H](C)[C@](O)([C@@H]2C[C@@H]([C@H](COC(=O)c3ccccc3)OC(=O)c3ccccc3)OC2=O)C1
> 100 µM

What TGI appears in the records for this compound with HCT-15 colon? COC1=CC(C2c3cc4c(cc3[C@@H](Nc3ccc([N+](=O)[O-])cc3)C3COC(=O)[C@H]23)OCO4)=CC(=O)C1=O (some centres not stated)
34.1 µM

What TGI appears in the records for this compound with HCT-15 colon? COc1ccc(/C=C2\N=C(c3ccccc3)N(Nc3nnc(NN4C(=O)/C(=C/c5ccc(OC)cc5)N=C4c4ccccc4)c4ccccc34)C2=O)cc1
> 100 µM

What TGI appears in the records for this compound with HCT-15 colon? NC(N)=N/N=C/c1cccc(Cl)c1Cl
11.7 µM

What TGI appears in the records for this compound with HCT-15 colon? COc1ccc(C2SC(N)=Nc3c2c(C)nn3C(=O)c2ccc(Cl)cc2)cc1 (configuration not stated)
> 10 µM

What TGI appears in the records for this compound with HCT-15 colon? COC(=O)[C@H]1C=C[C@@H](C)n2c(=O)c3ccccc3c(=O)n21
> 100 µM

What TGI appears in the records for this compound with HCT-15 colon? Oc1ccc(/C=N/Nc2nc3ccccc3s2)c(O)c1
20.6 µM

What TGI appears in the records for this compound with HCT-15 colon? O=C(O)c1ccccn1
> 100 µM

What TGI appears in the records for this compound with HCT-15 colon? Cc1cnc2[nH]c(-c3ccc(F)cc3)cc(=O)c2c1
> 100 µM

# credit: PubChem BioAssay (NCI)
